Protocol details: NCI Yeast Anticancer Drug Screen. Data for the bub3 strain (AID 167)
Experimental parameters: S. cerevisiae bub3 mutant strain, at 50.0 µM, active compounds read high
About 79,000 compounds went through this panel and 15% of them were active in at least one assay; those are over-represented in the sample as a whole.
Please use satisfied whenever growth inhibition is not below 90%, and not satisfied whenever it is.

Please review the following examples before continuing.
O=S(=O)(O)c1cnccn1 : satisfied
Cc1nc(Sc2nc3ccc([N+](=O)[O-])cc3s2)sc1C : not satisfied
CCCCC(C=O)(C=C=C(C)C)CC (stereo unspecified) : not satisfied

Quick check, growth inhibition >= 90%? O=C1C=C(Cl)C(=O)c2ccccc21 satisfied

Quick check, growth inhibition >= 90%? O=C(/C=C/c1ccccc1)c1ccccc1O not satisfied

###

Protocol details: NCI Yeast Anticancer Drug Screen. Data for the sgs1 mgt1 strain (AID 161)
Experimental parameters: S. cerevisiae sgs1 mgt1 strain, at 5.0 µM (retest, dose inferred, filed as 0.5)
About 79,000 compounds went through this panel and 15% of them were active in at least one assay; those are over-represented in the sample as a whole. The source made the active and inactive calls. Cut-off read from the data, not from the text of the source: active = growth inhibition above about 70%; inactive = the rest.
Mark one answer only. Choices: TRUE for active, FALSE for inactive

Please review the following examples before continuing.
Cc1ccccc1N=NC(C#N)C#N : TRUE
CCOC(=O)C(NC(C)=O)C(=O)c1ccccc1 (stereo not given) : FALSE
CN(C)CCN(C)CC(C)(C)C(=O)/C=C/c1ccc(Cl)c(Cl)c1 : FALSE
Cc1c(O)ccc(SC#N)c1C : FALSE

Look up the recorded call for OC(c1cc2ccc(C(F)(F)F)cc2c2cc(C(F)(F)F)ccc12)C1CCCCN1 (stereo not given) in this test. TRUE

Look up the recorded call for COC(=O)c1cc([N+](=O)[O-])cc([N+](=O)[O-])c1Cl in this test. TRUE

Look up the recorded call for Oc1c(Cl)cc(Cl)cc1C=NCC1CCC(CN=Cc2cc(Cl)cc(Cl)c2O)CC1 (stereo not given) in this test. FALSE

Look up the recorded call for Oc1c(C(Nc2ccccc2)c2ccccc2)ccc2cccnc12 (stereo not given) in this test. FALSE

Look up the recorded call for c1csc(-c2[nH]nc3c2CCc2ccccc2-3)c1 in this test. FALSE

Look up the recorded call for COc1ccc2c(c1)c(CC(=O)O)c(C)n2C(=O)c1ccc(Cl)cc1 in this test. FALSE

Look up the recorded call for OC(c1cc(C23CC4CC(CC(C4)C2)C3)nc2c(Cl)cc(Cl)cc12)C1CCCCN1 (stereo not given) in this test. TRUE

Look up the recorded call for C/C(=N/NC(N)=S)c1ccc(C)cc1 in this test. FALSE

Look up the recorded call for COC(=O)C(=[N+]=[N-])C(=O)c1ccc([N+](=O)[O-])o1 in this test. FALSE

Look up the recorded call for CC1=CC(=NC(=O)CBr)C=C/C1=N\S(=O)(=O)c1ccccc1 in this test. FALSE

Look up the recorded call for CCOc1ccc(C(C[N+](=O)[O-])Sc2ccccc2N)cc1 (stereo not given) in this test. FALSE

###

Protocol details: NCI Yeast Anticancer Drug Screen. Data for the mlh1 rad18 strain (AID 175)
Experimental parameters: S. cerevisiae mlh1 rad18 strain growth inhibition; at 50.0 µM (retest, dose inferred, filed as 5.0)
This is part of a sample that, as a whole, favours compounds with a hit. Of some 79,000 tested, about 15% had one in any assay. The source made the active and inactive calls. Cut-off read from the data, not from the text of the source: active = growth inhibition above about 70%; inactive = the rest. *1 amine or outer side, *2 acyl side, *3 side chain or, on linkers, in order; H or OH if unused. Where a SMILES comes first, the peptide text is derived from it. Bridges are numbered along the chain shown (N, C = ends). Roman numbers before positions name the chains, in order. [ ]: non-standard residue; d: D form. Actinocin(1to9) = Cc1c2oc3c(C)ccc(C(=O)[*:2])c3nc-2c(C(=O)[*:1])c(N)c1=O; NMeV = CN[CH](C(=O)O)C(C)C; Sar = CNCC(=O)O
Mark one answer only. Choices: active, inactive

Please review the following examples before continuing.
O=C(/C=C/c1ccccc1)CCC1C(=O)c2ccccc2C1=O : inactive
CCCOS(=O)(=O)c1ccccc1 : inactive
CCC(C)C1NC(=O)C(NC(=O)c2c3nc4c(C(=O)NC5C(=O)NC(C(C)CC)C(=O)N6CCCC6C(=O)N(C)CC(=O)N(C)C(C(C)C)C(=O)OC5C)ccc(C)c4oc-3c(C)c(=O)c2N)C(C)OC(=O)C(C(C)C)N(C)C(=O)CN(C)C(=O)C2CCCN2C1=O (stereo not given) (I: TIP[Sar][NMeV] / II: TIP[Sar][NMeV]; ester I:1-I:C, II:1-II:C; linker I:N-II:N via Actinocin(1to9); configuration not given here) : active
O=[N+]([O-])c1ccc([I+]c2ccccc2)cc1 : active

Look up the recorded call for O=C1/C(=C\c2ccc([N+](=O)[O-])cc2)CS(=O)(=O)C/C1=C/c1ccc([N+](=O)[O-])cc1 in this test. active

Look up the recorded call for CC1=NN(c2ccccc2)C(=O)C1(Br)Br in this test. inactive

Look up the recorded call for Cc1ccccc1NC(=O)Cc1csc2[n+]1C(=O)/C(=C/c1ccc([N+](=O)[O-])cc1)S2 in this test. inactive

Look up the recorded call for CN(C)CCN(C)CC(C)(C)C(=O)/C=C/c1ccc(Cl)c(Cl)c1 in this test. active

Look up the recorded call for CN=C(N)N/N=C(\c1ccccc1)c1ccc(Br)cc1 in this test. inactive

Look up the recorded call for COc1cc(/C=C/c2ccnc3ccccc23)cc(OC)c1OC in this test. active
